# selectivity ratio listing for each entry below
- protocol-description: Selectivity index, ratio of CC50 for cytotoxicity against LPS-stimulated mouse RAW264.7 cells to MIC50 for antitubercular activity against Mycobacterium tuberculosis H37Rv
- Assay type: toxicity, cell-based
- condition-notes: LPS-stimulated RAW264.7 cells, read-out: Selectivity Index

molecule: S=C(NCc1ccccc1)N1CCN(c2ccccc2)CC1
limit-sign: =
selectivity ratio: 1.9

molecule: O=C(C1CCCO1)N1CCN(C(=S)NCc2ccccc2)CC1 (stereo not drawn)
limit-sign: >
selectivity ratio: 8

molecule: N#CNC(=S)NCCc1ccccc1
limit-sign: =
selectivity ratio: 1.9

molecule: OCCNC(=S)Nc1ccccc1
limit-sign: =
selectivity ratio: 1.9

molecule: COc1ccc(NC(=S)NCc2ccccc2)cc1
limit-sign: =
selectivity ratio: 133

molecule: S=C(NCCc1ccccc1)N1CCN(c2ccccn2)CC1
limit-sign: =
selectivity ratio: 3.2

molecule: S=C(Nc1ccccc1)N1CCN(c2ncccn2)CC1
limit-sign: >
selectivity ratio: 1.6

molecule: COc1cc(NC(=S)Nc2ccccc2)cc(OC)c1OC
limit-sign: =
selectivity ratio: 5.3

molecule: S=C(Nc1ccccc1)N1CCN(c2ccccc2Cl)CC1
limit-sign: =
selectivity ratio: 0.8

molecule: S=C(NCCc1ccccc1)N1CCN(c2ncccn2)CC1
limit-sign: =
selectivity ratio: 1.2

molecule: S=C(NCc1ccccc1)Nc1ccccn1
limit-sign: >
selectivity ratio: 1.1

molecule: Oc1ccc(N2CCN(C(=S)Nc3ccccc3)CC2)cc1
limit-sign: =
selectivity ratio: 1.2

molecule: S=C(Nc1ccccc1)Nc1ccccn1
limit-sign: >
selectivity ratio: 12.2

molecule: O=C(NNC(=S)NCc1ccccc1)c1ccccc1
limit-sign: =
selectivity ratio: 1.3

molecule: S=C(NCCc1ccccc1)N1CCN(c2nc3ccccc3[nH]2)CC1
limit-sign: =
selectivity ratio: 1.7

molecule: COc1ccc(NC(S)=Nc2ccccc2)cc1
limit-sign: =
selectivity ratio: 2.7

molecule: S=C(NCc1ccccc1)N(c1ccccc1)c1ccccc1
limit-sign: =
selectivity ratio: 0.3

molecule: S=C(NCc1ccccc1)Nc1ccc2c(c1)OCO2
limit-sign: >
selectivity ratio: 1.5

molecule: S=C(NCc1ccccc1)Nc1ccc2c(c1)OCCO2
limit-sign: >
selectivity ratio: 100

molecule: S=C(NCc1ccccc1)N1CCN(c2ncccn2)CC1
limit-sign: =
selectivity ratio: 2.9

molecule: CCCCNC(=S)NCc1ccccc1
limit-sign: =
selectivity ratio: 1.1

molecule: CC(C)NC(=S)NCc1ccccc1
limit-sign: >
selectivity ratio: 3.5

molecule: CCN(CC)C(S)=NCCc1ccccc1
limit-sign: =
selectivity ratio: 4.9

molecule: CC(C)c1ccc(NC(=S)NCc2ccccc2)cc1
limit-sign: =
selectivity ratio: 52.5

molecule: CCN(CC)C(=S)NCc1ccccc1
limit-sign: >
selectivity ratio: 4.9

molecule: COc1cc(NC(=S)NCCc2ccccc2)cc(OC)c1OC
limit-sign: >
selectivity ratio: 25

molecule: O=C(O)c1ccc(NC(=S)NCc2ccccc2)cc1O
limit-sign: =
selectivity ratio: 33.3

molecule: COc1cc(NC(=S)N2CCN(c3ccc(O)cc3)CC2)cc(OC)c1OC
limit-sign: =
selectivity ratio: 0.2
